Test system: A498 renal
Test description: NCI-60 one-dose screen, 48 h
Details: 10 µM
This is part of a sample that, as a whole, favours compounds with a hit. Of some 83,000 tested, about 20% had one in any assay. Active and inactive are the calls of the source. Rule for the calls: active = growth percent below 10; inactive = the rest.
Outcome (select one): T = active, F = inactive

Here are 6 compounds together with their reported answers.
Smiles record	Discrete label
COc1ccc2nc(Cl)c(-c3cc(-c4ccccc4)nc(=S)[nH]3)cc2c1	F
CC(=O)Nc1ccc(-c2cn(-c3cccc(C(=O)Nc4cc(CN5CCOCC5)cc(C(F)(F)F)c4)c3)nn2)cn1	T
C/C(=C\CC/C=C(\C)CC/C=C(\C)CC[C@@H](O)C(C)(C)O)CC/C=C(\C)CC[C@@H](O)C(C)(C)O	F
CN(C)c1nc(NCCNS(=O)(=O)c2ccc(C(=O)/C=C/c3ccccc3)cc2)nc(Nc2ccc(F)cc2)n1	F
COc1ccc(-c2cc(C(=O)N=Nc3c(O)[nH]c4ccc(F)cc34)c3ccccc3n2)cc1	F
O=C1NC(=NC23CC4CC(CC(C4)C2)C3)N/C1=C\c1ccc2ncoc2c1	T

Q) Test call, this compound: `O=C(Nc1ccc(OCC(=O)c2ccccc2)cc1)Nc1ccc(Cl)c(C(F)(F)F)c1`
A) F

Q) Can you check `Cc1cc(=O)oc2cc(OCCCCOc3ccc(/C=C/C(=O)Nc4ccc(F)c(Cl)c4)cc3)ccc12` next?
A) F

Q) Then what about the compound `O=C(Nc1nc2ccc([N+](=O)[O-])cc2s1)Nc1cc(Cl)ccc1I` ?
A) T

* * *

Test system: A498 renal
Test description: NCI-60 one-dose screen, 48 h (100 = growth as untreated, 0 = no growth, -100 = all killed)
Details: 10 µM
This is part of a sample that, as a whole, favours compounds with a hit. Of some 83,000 tested, about 20% had one in any assay. Activity calls are given as the source filed them. Rule for the calls: active = growth percent below 10; inactive = the rest.
molecules and their reported growth

Q) Please report the recorded growth for `CCOP(=O)(OCC)O[C@H]1CC[C@]2(C)[C@H]3CC[C@@H]4[C@@H]([C@](C)(O)CCC=C(C)C)CC[C@@]4(C)[C@]3(C)CC[C@H]2C1(C)C` .
A) 52.5% (inactive)

Q) Now try `CCCCCc1ccc(S(=O)(=O)Nc2cc(-c3csc(N(C)C(C)=O)n3)ccc2N2CCN(C)CC2)cc1` .
A) 104% (inactive)

Q) Next entry: `COc1ccc2cc([C@H](C)C(=O)NCc3ccccc3)ccc2c1`
A) 63.1% (inactive)

Q) Please answer likewise for `CC1(C)CC[C@]23CC[C@]4(C)[C@H](CC[C@@H]5[C@@]6(C)CC[C@H](N)C(C)(C)[C@@H]6CC[C@]54C)[C@H]2[C@H]1OC3=O`
A) -90.3% (active)

Q) One more molecule: `CO[C@H]1CSS[C@@H]1Cn1nc(-c2ccc(Oc3ccccc3)cc2)c2c(N)ncnc21`
A) 92.8% (inactive)

Q) Param item: `OCCNc1oc(-c2ccccc2)nc1[P+](c1ccccc1)(c1ccccc1)c1ccccc1`
A) 74.6% (inactive)

Q) Consider next the molecule `COc1cccc(-c2nn(-c3ccccc3)cc2-c2ccnc(NCCCNC(=O)Nc3ccc(F)cc3)c2)c1` in the same way.
A) 58% (inactive)

Q) What do we get for `O=c1[nH]c2ccc(Cl)cc2cc1CSc1ccc(Nc2nccc(-c3ccc(Cl)cc3)n2)cc1` ?
A) 118% (inactive)
